test: qHTS assay to identify aromatase inhibitors - cell viability counter screen (AID 743084); settings: MCF-7 aro ERE viability, CellTiter-Fluor, 24 h; series mostly up to 70.3 µM;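 also: cells stimulated with testosterone during compound exposure; nearly all actives have a fitted effect of over 55% in size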
Records with an inconclusive call do not appear. Active and inactive are the calls of the source. Calls follow the shape of the dose curve; as a rule, active = well fitted cell-killing curve with a large enough effect in the repeat runs; inconclusive = weak or mixed curves, or effect the other way; inactive = no such curve, though single readings can be large or run the other way.
Outcome codes: Y (active), N (inactive)

- molecule: "CCc1cc(Cc2cc(CC)cc(C(C)(C)C)c2O)c(O)c(C(C)(C)C)c1"
  className: "Y"
- molecule: "CSc1ccc(/C=C2/C(C)=C(CC(=O)O)c3cc(F)ccc32)cc1"
  className: "N"
- molecule: "N#CSc1ccc(N)c([N+](=O)[O-])c1"
  className: "Y"
- molecule: "CCCCN(CCCC)C(=O)N(CCCC)CCCC"
  className: "N"
- molecule: "Cc1cc(CCN2CCN(c3nsc4ccccc34)CC2)cc2c1NC(=O)CC2(C)C"
  className: "Y"
- molecule: "CC(C)(C)C(=O)OCOC(=O)C1N2C(=O)CC2S(=O)(=O)C1(C)C (configuration not stated)"
  className: "N"
- molecule: "[O-][n+]1ccccc1SSc1cccc[n+]1[O-]"
  className: "Y"
- molecule: "CCCCN1C(=O)[C@@H]([C@H](O)C2CCCCC2)NC(=O)C12CCN(Cc1ccc(Oc3ccc(C(=O)O)cc3)cc1)CC2"
  className: "N"
- molecule: "S=c1[nH]c2ccccc2s1"
  className: "N"
- molecule: "CCC(N)(CO)CO"
  className: "N"
- molecule: "Nc1ccc2cc(S(=O)(=O)O)cc(O)c2c1N=Nc1ccccc1C(F)(F)F"
  className: "Y"
- molecule: "Nc1ccc(N)c2ccccc12"
  className: "Y"

* * *

test: qHTS assay to identify small molecule agonists of the estrogen related receptor (ERR) signaling pathway from Tox21 library (AID 1224849); settings: ERR reporter cell line, ONE-Glo luciferase, 18 h; at 92.4 µM (top of the series) unless noted; also: % is scaled to controls: 0 for no effect and ±100 for the full control effect; nearly all actives have a fitted effect of over 15% in size
Calls of active or inactive are those of the source. Calls follow the shape of the full dose curve.

- cpdSmiles: "COc1cccc(N)c1"
  activity change, positive = activation: "-25.2% (inactive)"
- cpdSmiles: "CCN(C(=O)N(CC)c1ccccc1)c1ccccc1"
  activity change, positive = activation: "-25.8% (inactive)"
- cpdSmiles: "NNc1nc(-c2ccccc2)cs1"
  activity change, positive = activation: "-30.7% (inactive)"
- cpdSmiles: "CN(C)C(=O)C1(N2CCCCC2)CCN(CC[C@@]2(c3ccc(Cl)c(Cl)c3)CN(C(=O)c3ccccc3)CCO2)CC1"
  activity change, positive = activation: "-73.9% (inactive)"
- cpdSmiles: "O=C(c1ccc(F)cc1)C1CCN(CCn2c(=O)[nH]c3ccccc3c2=O)CC1"
  activity change, positive = activation: "-25.2% [at 42.5 µM] (inactive)"
- cpdSmiles: "Oc1ccc2c(c1)-c1ccccc1C2"
  activity change, positive = activation: "-22% (inactive)"
- cpdSmiles: "Cc1cc(CCN2CCN(c3nsc4ccccc34)CC2)cc2c1NC(=O)CC2(C)C"
  activity change, positive = activation: "-74.7% (inactive)"
- cpdSmiles: "C=CC(=O)OCCn1c(=O)n(CCOC(=O)C=C)c(=O)n(CCOC(=O)C=C)c1=O"
  activity change, positive = activation: "-78.2% (inactive)"
- cpdSmiles: "Nc1cc(C(F)(F)F)ccc1S"
  activity change, positive = activation: "-31.1% [at 42.5 µM] (inactive)"
- cpdSmiles: "CSc1ccc(/C=C2/C(C)=C(CC(=O)O)c3cc(F)ccc32)cc1"
  activity change, positive = activation: "-7.17% [at 42.5 µM] (inactive)"
- cpdSmiles: "OCCN1CCN(CC/C=C2/c3ccccc3Sc3ccc(C(F)(F)F)cc32)CC1"
  activity change, positive = activation: "-67.6% [at 42.5 µM] (inactive)"
- cpdSmiles: "Cc1cc(O)c(C(C)(C)C)cc1C(C)(C)C"
  activity change, positive = activation: "-68.9% (inactive)"

* * *

test: A CellTox Green Cytotoxicity Assay to monitor cytotoxicity in HepG2 cells - 32 hour (AID 1224883); settings: CellTox Green fluorescence; series mostly up to 76.8 µM; also: nearly all actives have a fitted effect of over 50% in size
Results filed as inconclusive are left out. The source made the active and inactive calls. Calls follow the shape of the dose curve; as a rule, active = well fitted activation curve with a large enough effect in the repeat runs; inconclusive = weak or mixed curves; inactive = flat fitted curve, though single readings scatter.
Outcome codes: active, inactive

- compound: "NNc1nc(-c2ccc([N+](=O)[O-])cc2)cs1"
  className: "inactive"
- compound: "CCC1OCC(COc2ccc(Oc3ccccc3)cc2)O1 (stereo not drawn)"
  className: "inactive"
- compound: "COc1cccc(N)c1"
  className: "inactive"
- compound: "O=C(Oc1ccccc1)c1ccccc1C(=O)Oc1ccccc1"
  className: "inactive"
- compound: "CCc1oc2ccccc2c1C(=O)c1cc(Br)c(O)c(Br)c1"
  className: "inactive"
- compound: "CSc1ccc(C(=O)c2[nH]c(=O)[nH]c2C)cc1"
  className: "inactive"
- compound: "CC(=O)S[C@@H]1CC2=CC(=O)CC[C@]2(C)[C@H]2CC[C@@]3(C)[C@@H](CC[C@@]34CCC(=O)O4)[C@H]12"
  className: "active"
- compound: "CCCCCCCCOc1ccccc1C(=O)Nc1ccc(C(=O)OCC[N+](C)(CC)CC)cc1"
  className: "active"
- compound: "C/C=C(\\C)C(=O)OCc1ccccc1"
  className: "inactive"
- compound: "C=CC(=O)OCC(CO)(COCC(COC(=O)C=C)(COC(=O)C=C)COC(=O)C=C)COC(=O)C=C"
  className: "active"
- compound: "Cc1c(C)c2c(c(C)c1O)CCC(C)(COc1ccc(CC3SC(=O)NC3=O)cc1)O2 (stereo not drawn)"
  className: "inactive"
- compound: "C[C@@H](NCCCc1cccc(C(F)(F)F)c1)c1cccc2ccccc12"
  className: "active"
- compound: "CCCCCCCCCCCCCCCC(=O)OC[C@H](O)[C@H]1OC(=O)C(O)=C1O"
  className: "inactive"
- compound: "Oc1ccc2c(c1)-c1ccccc1C2"
  className: "active"
- compound: "CCCCCCCCCCCCCCCCCC[N+](C)(C)Cc1ccccc1"
  className: "active"
- compound: "Fc1ccc([C@@H]2CCNC[C@H]2COc2ccc3c(c2)OCO3)cc1"
  className: "active"
- compound: "Cc1ccc2oc(CN(Cc3ccccc3)C(=O)Nc3c(F)cc(F)cc3F)c(-c3ccc(Cl)cc3)c2c1"
  className: "inactive"
- compound: "COCCCC/C(=N\\OCCN)c1ccc(C(F)(F)F)cc1"
  className: "active"
- compound: "CC[C@@]1(O)C(=O)OCc2c1cc1n(c2=O)Cc2cc3c(CN(C)C)c(O)ccc3nc2-1"
  className: "active"
- compound: "CNc1ccc(O)cc1"
  className: "active"
- compound: "CSc1ccc2c(c1)C(N1CCN(C)CC1)Cc1ccccc1S2 (stereo not drawn)"
  className: "active"
- compound: "Cc1cc(O)c(Cl)c(C)c1Cl"
  className: "active"
- compound: "CCOc1nc2cccc(C(=O)OC(C)OC(=O)OC3CCCCC3)c2n1Cc1ccc(-c2ccccc2-c2nn[nH]n2)cc1 (stereo not drawn)"
  className: "active"

* * *

assay: qHTS assay to identify small molecule agonists of the endoplasmic reticulum stress response signaling pathway - cell viability counter screen (AID 1159517); conditions: ESRE-bla HeLa viability, CellTiter-Glo luminescence, 5 h; series mostly up to 61 µM; also: nearly all actives have a fitted effect of over 50% in size
Inconclusive results are not listed. Activity calls are given as the source filed them. The call rests on the fitted dose curve.
Outcome codes: T for active, F for inactive

- molecule: "C=CC(=O)OCC(CO)(COCC(COC(=O)C=C)(COC(=O)C=C)COC(=O)C=C)COC(=O)C=C"
  className: "T"
- molecule: "OCCN1CCN(CC/C=C2/c3ccccc3Sc3ccc(C(F)(F)F)cc32)CC1"
  className: "T"
- molecule: "CCCCCCC[N+](CC)(CC)CCCCc1ccc(Cl)cc1"
  className: "F"
- molecule: "CC(C)=CCOc1ccc(/C=C/C(=O)c2ccc(OCC=C(C)C)cc2OCC(=O)O)cc1"
  className: "F"
- molecule: "OC1(c2ccc(Cl)c(C(F)(F)F)c2)CCN(CCCC(c2ccc(F)cc2)c2ccc(F)cc2)CC1"
  className: "T"
- molecule: "C=C(C)C(=O)OCC(O)COc1ccc(C(C)(C)c2ccc(OCC(O)COC(=O)C(=C)C)cc2)cc1 (stereo not given)"
  className: "F"
- molecule: "Oc1cc2ccccc2c2ccccc12"
  className: "T"
- molecule: "Nc1nc2ccccc2n1Cc1ccc(F)cc1"
  className: "F"
- molecule: "CCCCCCCCCCCCCCCC[N+](C)(C)CCN(Cc1ccc(OC)cc1)c1ncccn1"
  className: "T"
- molecule: "CN(C/C=C/C#CC(C)(C)C)Cc1cccc2ccccc12"
  className: "F"

* * *

target: Nuclear receptor subfamily 1 group I member 3 (Homo sapiens); assay: qHTS assay to identify small molecule agonists of the constitutive androstane receptor (CAR) signaling pathway (AID 1224839); details: HepG2 hCAR CYP2B6-luciferase, agonist mode, 24 h; series mostly up to 92.4 µM; also: nearly all actives have a fitted effect of over 15% in size;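 as to activation: HepG2 cells stably carrying human CAR and a CYP2B6 luciferase reporter; % is scaled to controls: 0 for no effect and ±100 for the full control effect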
Results filed as inconclusive are left out. Activity calls are given as the source filed them. Calls follow the shape of the dose curve; as a rule, active = well fitted activation curve with a large enough effect in the repeat runs; inconclusive = weak or mixed curves; inactive = no such curve, though single readings can be large or run the other way.
Outcome codes: active, inactive

- cpdSmiles: "CCOC(=O)O[C@H](C)OC(=O)c1ccc2c(c1)cc(C(=O)NC1CCN(C(C)C)CC1)n2Cc1cc(-c2ccc(Cl)s2)on1"
  className: "inactive"
- cpdSmiles: "CCCCN(CCCC)C(=O)N(CCCC)CCCC"
  className: "active"
- cpdSmiles: "O=C(c1ccc(O)cc1O)c1ccc(O)cc1O"
  className: "inactive"
- cpdSmiles: "CN(C)c1ccc(SC#N)cc1"
  className: "inactive"
- cpdSmiles: "COc1cc(/C=C/C(=O)O[C@H]2CC[C@]34C[C@]35CC[C@]3(C)[C@@H]([C@H](C)CCC=C(C)C)CC[C@@]3(C)[C@@H]5CC[C@H]4C2(C)C)ccc1O"
  className: "inactive"
- cpdSmiles: "CCN(CC)CCNC(=O)c1c(C)[nH]c(/C=C2\\C(=O)Nc3ccc(F)cc32)c1C"
  className: "inactive"
